# System: RARg:RXRa (NR concentration 270 nM, RXRa partner concentration 90 nM)
# Method Summary: PBM binding z-score (relative to random genomic background probes); higher = stronger binding; sequences stand for … in GC…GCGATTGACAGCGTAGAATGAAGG
Measured Endpoint: PBM binding z-score

>>> df
                   biopolymer_sequence    measured_endpoint  recorded_measurement
 0  TAGCCTAGGGCATTCAGGGGCCAGTATAGAAAGC  PBM binding z-score                  1.99
 1  TCTAGTTGGTCACGGAGGTCCCACACGACGGGTA  PBM binding z-score                  1.02
 2  CCGACTGGGGCAAGGTCACCATAACGCACAGCCA  PBM binding z-score                  4.32
 3  AACGAAAGGTCGAAGGTGAGTATACCCACCCGAA  PBM binding z-score                   4.5
 4  ATATGTAGGTTAGGGTCAGTCAGAAAGTAGGGAA  PBM binding z-score                  3.08
 5  AATACAGGGTAACTAGGCCAGAGTAGGTACGAAT  PBM binding z-score                  0.64
 6  CGAACTAGGTCATCCAGGACCGTGAATACATTGA  PBM binding z-score                  3.95
 7  ATATGTAGGTTAGGGGTCATTCAGGTTGGTTCGC  PBM binding z-score                  5.63
 8  CGAACTAGGTCAAGGACAGTAAATCTCCGCACGC  PBM binding z-score                  4.01
 9  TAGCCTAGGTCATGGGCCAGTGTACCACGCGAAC  PBM binding z-score                  4.41
10  CAAACCAGGTCACAGAGGTCAAAGTCCGTGCGTA  PBM binding z-score                  7.52
11  TTACCAAGGTCAAGGTCGTTGATCCCTCTGTAGA  PBM binding z-score                  6.48
12  CAAACCAGGTCAAAGGTCAAAGTCGAGCCAACCA  PBM binding z-score                  8.97
13  GATACGGGGTCAAGGCCAGAGTACGCGTATTGAT  PBM binding z-score                   7.3
14  CCGAGTAGGTTACTAGGGGGCATTCAGTGCGAAT  PBM binding z-score                  2.46
15  CCTACTCGGCCAAAAAGGTCATTGATGCCGATAA  PBM binding z-score                   4.7
16  GCTAGTTGGTCAGTAAAAGGTGACACACCGGTCG  PBM binding z-score                  1.58
17  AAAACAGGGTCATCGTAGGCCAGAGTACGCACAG  PBM binding z-score                     6
18  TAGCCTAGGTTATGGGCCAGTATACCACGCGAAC  PBM binding z-score                 0.379
19  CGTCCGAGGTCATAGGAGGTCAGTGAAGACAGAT  PBM binding z-score                  7.12
20  ATATGTAGGTTATCGGGTCATACAGTTTGCGCAT  PBM binding z-score                  3.64
21  GCTTACGGGTCCAAGGTTATAGCATGAATAGAAT  PBM binding z-score                 0.631
22  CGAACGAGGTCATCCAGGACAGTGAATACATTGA  PBM binding z-score                  6.67
23  TACCCTAGGTCATTGGGCCAGTATAGTACGCATC  PBM binding z-score                  4.13
24  AGAATGAGGTTAAACGTAGATCAGGGAAGAAAGT  PBM binding z-score                   2.9
25  TGTCAAAGTTCAAAGGTGACGTAAGTATCCACAC  PBM binding z-score                  6.99
26  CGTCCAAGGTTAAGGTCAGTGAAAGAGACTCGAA  PBM binding z-score                   4.2
27  CCTTACGGGTCACGAGGTTGTAGCACGACGAGCG  PBM binding z-score                  5.67
28  ATATGTAGGATAGCTGGGGTCATTCAGACTAGGC  PBM binding z-score                   3.3
29  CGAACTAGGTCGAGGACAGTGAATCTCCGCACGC  PBM binding z-score                 0.749
30  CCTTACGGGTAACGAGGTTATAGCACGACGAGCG  PBM binding z-score                  1.01
31  CTATGTGGGTTAAGGGGGTCATTCAGTTTGAAAG  PBM binding z-score                  5.36
32  CGTCAAAGTTCAAGGTCACGTAACAGAAAGCAGC  PBM binding z-score                  7.15
33  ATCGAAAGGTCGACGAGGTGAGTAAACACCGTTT  PBM binding z-score                   4.4
34  ACTTACGGCTCAACGAGGTTATAGCACGCGTATA  PBM binding z-score                 0.411
35  TCTATTAGTTGATTAGGGCAACCGAAACAGCGGA  PBM binding z-score                  0.66
36  GCTGCTAGGTCAACTGATGGTCACCTAAAGCTCG  PBM binding z-score                  5.53
37  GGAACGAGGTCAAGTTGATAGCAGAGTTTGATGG  PBM binding z-score                  6.84
38  ACTCGGATGACAAAGGTCAGAGCTACGCCAGTGA  PBM binding z-score                   4.9
39  AATACAGGGTCATCGTACGCCAGAGTACGCACAG  PBM binding z-score                  5.65
40  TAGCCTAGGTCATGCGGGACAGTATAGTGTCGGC  PBM binding z-score                  3.95
41  CCGACGGGGGCAAAGGTTACCATACTCAGTACGA  PBM binding z-score                   6.4
42  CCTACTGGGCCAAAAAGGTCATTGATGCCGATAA  PBM binding z-score                  4.72
43  TCTTGTAGATCGATAGAGGTTAAGAAAGTGCGCT  PBM binding z-score                 0.525
44  ATCGAAAGGTCGAAGGTGCGTATACCCACCCGAA  PBM binding z-score                  3.93
45  TAGCCTAGTTCATTCAGGGGCCAGTATAGAAAGC  PBM binding z-score                   3.6
46  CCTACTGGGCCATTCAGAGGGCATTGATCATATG  PBM binding z-score                  1.43
47  CGTCCAAGGACAATGCTAGGTCAGTGAAAGCATT  PBM binding z-score                  1.34
48  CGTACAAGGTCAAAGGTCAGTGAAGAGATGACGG  PBM binding z-score                  8.95
49  CCTACGGGGCCACGAAAGGTCATTGATTCAGTGA  PBM binding z-score                  5.49
50  CGAACAAGGTCATCCAGGACAGTGAATACATTGA  PBM binding z-score                  6.28

Numbers sourced from the supplement of paper PMC6555819.
